assay: chemical genetic growth profiling, strain panel (AID 1159580);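 note: tested at 20 µM; growth read once vehicle control cultures reached saturation at 30 °C; 1 = growth at the plate median or of vehicle wells; lower values mean less growth of the strain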; details: S. cerevisiae deletion strains, growth OD, locus YDL101C, strain DUN1, active compounds read low
About 2,000 (36%) of roughly 5,500 compounds were called active. About 18% were inconclusive and are not listed. This is one part of the list.
Field: normalized growth. Provide a value for each of the molecules that follow.

**Q:** Report normalized growth, nothing else, for this molecule: "CCCCNC(=O)NS(=O)(=O)c1ccc(C)cc1"
**A:** 1.01 (inactive)

**Q:** Report normalized growth, nothing else, for this molecule: "O=C(NNC(=S)Nc1cccc(Cl)c1)C1CC1"
**A:** 0.963 (inactive)

**Q:** Report normalized growth, nothing else, for this molecule: "O=C(O)/C=C/c1ccc(O)c(O)c1"
**A:** 1.01 (inactive)

**Q:** Report normalized growth, nothing else, for this molecule: "O=C(c1c(F)cccc1F)N1CCN(C(=O)c2c(F)cccc2F)CC1"
**A:** 1 (inactive)

**Q:** Report normalized growth, nothing else, for this molecule: "CC(=O)c1ccc(Cl)c(NS(=O)(=O)c2cc(Cl)c(Cl)cc2Cl)c1"
**A:** 0.95 (inactive)

**Q:** Report normalized growth, nothing else, for this molecule: "Cc1ccc(S(=O)(=O)NC(=O)NN2CCCCCC2)cc1"
**A:** 0.997 (inactive)

**Q:** Report normalized growth, nothing else, for this molecule: Cn1c(=O)c2c(ncn2CC(O)CO)n(C)c1=O (stereo unspecified)
**A:** 0.995 (inactive)

**Q:** Report normalized growth, nothing else, for this molecule: "CCCOc1ccccc1/C=N\NC(=S)Nc1cccc(F)c1"
**A:** 1.04 (inactive)

**Q:** Report normalized growth, nothing else, for this molecule: C=C1C2CC[C@@]3(C)[C@H](c4ccoc4)OC(=O)C[C@]13O[C@H]1CC(=O)C(C)(C)[C@H](C(OC(C)=O)C(=O)OC)[C@@]21C (stereo partly specified)
**A:** 1.01 (inactive)

**Q:** Report normalized growth, nothing else, for this molecule: "CC(=O)Oc1cc(OC(C)=O)c2c(c1)O[C@H](c1ccc(OC(C)=O)c(OC(C)=O)c1)[C@@H](OC(C)=O)C2"
**A:** 0.994 (inactive)

**Q:** Report normalized growth, nothing else, for this molecule: "CC(C)c1ccc(COC(=O)Nc2ccc(CSc3ccc(Cl)cc3)o2)cc1"
**A:** 0.992 (inactive)
